Each recorded value in this set is attributed to PubChem BioAssay.

- measured_target: Botulinum neurotoxin type A (Clostridium botulinum) (UniProt P0DPI0)
- Sequence (P0DPI0 whole entry, looked up): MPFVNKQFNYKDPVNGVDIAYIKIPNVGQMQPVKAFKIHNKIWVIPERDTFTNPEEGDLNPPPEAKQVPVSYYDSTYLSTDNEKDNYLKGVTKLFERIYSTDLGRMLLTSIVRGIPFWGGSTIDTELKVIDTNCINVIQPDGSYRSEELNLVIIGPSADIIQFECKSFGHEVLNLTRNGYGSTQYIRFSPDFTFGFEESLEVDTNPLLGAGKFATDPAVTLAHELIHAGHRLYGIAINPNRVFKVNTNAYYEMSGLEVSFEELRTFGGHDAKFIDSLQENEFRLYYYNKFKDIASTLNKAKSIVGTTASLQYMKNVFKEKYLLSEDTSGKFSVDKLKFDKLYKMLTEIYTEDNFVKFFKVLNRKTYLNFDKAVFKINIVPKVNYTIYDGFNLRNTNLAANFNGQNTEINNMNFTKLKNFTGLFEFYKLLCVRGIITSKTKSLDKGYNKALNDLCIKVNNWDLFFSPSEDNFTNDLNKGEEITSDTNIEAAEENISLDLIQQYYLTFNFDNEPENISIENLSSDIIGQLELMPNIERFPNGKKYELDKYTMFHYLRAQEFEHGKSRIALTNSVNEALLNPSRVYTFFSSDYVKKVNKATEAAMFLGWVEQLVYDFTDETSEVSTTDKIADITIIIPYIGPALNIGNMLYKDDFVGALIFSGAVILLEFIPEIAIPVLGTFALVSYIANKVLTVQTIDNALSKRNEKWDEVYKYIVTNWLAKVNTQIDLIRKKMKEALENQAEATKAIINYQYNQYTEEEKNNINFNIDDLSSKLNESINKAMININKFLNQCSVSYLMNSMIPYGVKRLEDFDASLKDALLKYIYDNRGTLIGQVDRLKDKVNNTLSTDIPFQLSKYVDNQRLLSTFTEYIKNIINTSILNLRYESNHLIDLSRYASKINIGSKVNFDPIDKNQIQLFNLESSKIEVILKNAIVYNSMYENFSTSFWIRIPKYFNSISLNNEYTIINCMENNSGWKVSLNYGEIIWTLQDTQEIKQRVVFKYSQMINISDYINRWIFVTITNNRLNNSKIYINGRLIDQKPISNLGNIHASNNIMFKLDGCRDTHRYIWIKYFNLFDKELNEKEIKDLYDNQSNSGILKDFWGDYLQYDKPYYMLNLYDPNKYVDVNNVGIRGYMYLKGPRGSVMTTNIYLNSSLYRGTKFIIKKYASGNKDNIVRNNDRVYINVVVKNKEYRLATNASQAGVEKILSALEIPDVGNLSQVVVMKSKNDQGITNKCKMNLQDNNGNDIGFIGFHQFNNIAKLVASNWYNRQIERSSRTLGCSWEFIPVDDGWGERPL
- method: BoNT/A light chain protease inhibitors, biochemical, multiplex microsphere flow cytometry, validation set (AID 588460)
- condition_notes: at 10 µM, stronger effect = higher value
Listing: inhibition of selected compounds
// note: answer is a bare numeric in %

Solved cases below.
- compound: "O=c1c2ccccc2nc2n1-c1ccccc1CCC2"
  inhibition / %: 0.6
- compound: "Cc1cn([C@H]2C=C[C@@H](CO)O2)c(=O)[nH]c1=O"
  inhibition / %: -2.2
- compound: "COc1cc(OC)cc(C(C)=O)c1"
  inhibition / %: -1.3
- compound: "CCOc1ccc(C(=O)C(C)=O)c(OCC)c1"
  inhibition / %: 1
- compound: "CCc1ccc(/C=C2\\Oc3cc(OC(=O)N4CCOCC4)ccc3C2=O)cc1"
  inhibition / %: -0.2
- compound: "CCSc1nc(O)c(C2OC(=O)c3c2ccc(OC)c3OC)c(=O)n1CC (stereo not drawn)"
  inhibition / %: 0.5
- compound: "COc1ccc(CCN=CC2=C(O)CC(C)(C)CC2=O)cc1"
  inhibition / %: -0.7
- compound: "COc1ccc(C2NCCC3(O)CCCCC23)c(OC)c1OC (stereo not drawn)"
  inhibition / %: -0.3
- compound: "COc1ccc(OC)c([C@@H](O)[C@H](C)NC(C)(C)C)c1"
  inhibition / %: -1.1
- compound: "CC[N+]1(C)CCCC(OC(=O)C(O)(c2ccccc2)c2ccccc2)C1 (stereo not drawn)"
  inhibition / %: -0.6

Prompt: Enter reported inhibition observed with Botulinum neurotoxin type A (Clostridium botulinum) (UniProt P0DPI0) for "O=c1cc(CN2CCN(c3cccc(Cl)c3)CC2)c2cc(O)c(-c3ccccc3)cc2o1"
Completion: -1.5

Prompt: Now give it for "COc1ccc(N2C(=O)[C@@H]3[C@H](C2=O)[C@H]2c4ccccc4C=CN2[C@@H]3C(C)=O)cc1" too.
Completion: -0.4

Prompt: Now give it for "COC(=O)c1ccc(COc2ccc3c(C)c(C)c(=O)oc3c2C)o1" too.
Completion: -0.8

----------
- method: RPL19A-GFP modulators, yeast TOR pathway, confirmation, cell-based, S. cerevisiae, flow cytometry, cherry picks, mother/daughter gates (AID 2270)
- condition_notes: S. cerevisiae RPL19A-GFP strain, 3 h, measured here: mother cell gate, at 10 µM, stronger effect = lower value, 100 = same GFP as DMSO wells
Listing: GFP response vs DMSO of selected compounds

Solved cases below.
- smiles_structure: "CCN1C(=O)NC(=O)/C(=C\\c2cn(CC(=O)N3CCCC3)c3ccccc23)C1=O"
  GFP response vs DMSO: "96.9%"
- smiles_structure: "CN1CCN(c2ccc([N+](=O)[O-])c(Sc3ccccn3)c2)CC1"
  GFP response vs DMSO: "99.5%"
- smiles_structure: "COc1cc(/C=C/C(=O)c2c(O)n(CCc3ccccc3)c(=O)[nH]c2=O)ccc1O"
  GFP response vs DMSO: "103%"
- smiles_structure: "C[C@H](O)[C@H]1CC[C@H]2[C@@H]3CCC4=CC(=O)CC[C@]4(C)[C@H]3CC[C@]12C"
  GFP response vs DMSO: "99.6%"

Let's switch to this compound now.
Prompt: // query GFP response vs DMSO value for entry "O=c1[nH]c(=S)n(-c2ccccc2)c(O)c1/C=N/N1CCOCC1"
Completion: 102%
